Attribution: PubChem BioAssay (NCI)

Dear all, this message contains GI50 results, target or system U251 CNS.
quantity.name: GI50

compound: C=C1CC[C@@H]2[C@](C)(COC(C)=O)[C@H](OC(C)=O)CC[C@@]2(C)[C@@H]1CC(Nc1ccc(S(=O)(=O)Nc2nccc(C)n2)cc1)C1=CCOC1=O (stereo partly specified)
quantity.name: GI50
measurement: 3.17 µM
//
compound: Clc1nc(Cl)c2ncn(Cc3ccc(COc4cccc(OCc5ccc(Cn6cnc7c(Cl)nc(Cl)nc76)cc5)c4)cc3)c2n1
quantity.name: GI50
measurement: 19.8 µM
//
compound: CC(=O)OCC1OC(n2ccc(=O)[nH]c2=O)C(OC(C)=O)C1OC(C)=O (stereo unspecified)
quantity.name: GI50
measurement: > 100 µM
//
compound: O=C1C(Cl)=C(Nc2cccc(O)c2)C(=O)N1c1cc(Cl)c(Cl)cc1Cl
quantity.name: GI50
measurement: 13.7 µM
//
compound: CC(C)(C)c1ccc(S(=O)(=O)N[C@H]2CC[C@H]3[C@@H]4CCc5cc(OS(=O)(=O)O)ccc5[C@H]4CC[C@]23C)cc1
quantity.name: GI50
measurement: 1.68 µM
//
compound: Fc1ccc2[nH]c3c(NCCCN4CCOCC4)ncnc3c2c1
quantity.name: GI50
measurement: 48.8 µM

----------
system: A549 NSCLC; test: NCI tumour cell line growth inhibition, 48 h
Overview of recorded TGI for various molecules
quantity.name: TGI

molecule: Cc1nc2sc(C(=O)Nc3ccccc3)c(N)c2cc1C(=O)/C=C/c1ccccc1
measurement: 4.91 µM

molecule: Cc1nnc2n1-c1ccccc1C(=S)N1CSCC21 (stereo not given)
measurement: > 100 µM

molecule: CNC1=CC(=O)C2=C(C1=O)[C@H]1CC[C@]3(C)C(=O)CC[C@H]3[C@@H]1CC2
measurement: 49.9 µM

molecule: CC[C@H](CC#N)OC(=O)N[C@@H](C)c1cccc(NC(=O)Nc2ccc(-c3cnco3)c(OC)c2)c1
measurement: 20.9 µM

molecule: Cc1cccc2c1NC(=S)[C@@H]1CCCN1C2=O
measurement: > 100 µM

molecule: S=c1[nH]c(=S)c2cc(Sc3ccc4[nH]c(=S)[nH]c(=S)c4c3)ccc2[nH]1
measurement: > 100 µM

molecule: CC(C)C1OC(=O)/C=C/C=C/C=C/C=C/C=C/CC(O)CC(O)CC(O)CC(O)CC(O)CC(O)CC(O)CC(O)/C=C/C1C (stereo not given)
measurement: > 100 µM

molecule: CC(=O)n1c2ccccc2c2nc3nc(Oc4ccc(C)cc4)c4ccccc4c3cc21
measurement: > 100 µM

molecule: CNC(=S)N/N=C/c1cccc(C)n1
measurement: > 100 µM

molecule: CCOC(=O)C(NC(=O)Nc1ccc(Cl)c(Cl)c1)C(F)(F)F (stereo not given)
measurement: > 100 µM

----------
TGI values by entry
tested on: HOP-92 NSCLC; test: NCI tumour cell line growth inhibition, 48 h
quantity.name: TGI (µM)

molecule: CN(C)CCCN1CCc2c([nH]c3ccccc23)C1c1cccnc1 (stereo not given)
uom: µM
bound.operator: >
measurement: 100

molecule: O=C1C(Cl)=C(Nc2cccc(O)c2)C(=O)N1c1cc(Cl)c(Cl)cc1Cl
uom: µM
bound.operator: =
measurement: 26.2

molecule: CC(C)C1OC(=O)/C=C/C=C/C=C/C=C/C=C/CC(O)CC(O)CC(O)CC(O)CC(O)CC(O)CC(O)CC(O)/C=C/C1C (stereo not given)
uom: µM
bound.operator: >
measurement: 100

molecule: COc1cc(Nc2nc(N[C@H]3CCCC[C@@H]3N)nc3cc[nH]c(=O)c23)cc(OC)c1
uom: µM
bound.operator: =
measurement: 9.13

molecule: CC(=O)Nc1ccc2c(c1)oc(=O)c1cc(NC(C)=O)ccc12
uom: µM
bound.operator: >
measurement: 100

----------
Readings of TGI for the listed compounds
test system: UACC-62 melanoma; test: NCI tumour cell line growth inhibition, 48 h
quantity.name: TGI

compound: N#C/C(=C\c1cccc(O)c1)C(N)=O
measurement: > 100 µM
//
compound: Cc1cc(=O)oc2cc3c(cc12)Oc1ccccc1O3
measurement: > 100 µM
//
compound: COC(=O)C1C2C=CC(C2)N1[C@@H](C)c1ccccc1 (stereo partly specified)
measurement: > 100 µM
//
compound: CC(=O)Nc1ccc2[nH]c(-c3cccc(F)c3)cc(=O)c2c1
measurement: > 31 µM
//
compound: C=CC[C@H](C)CCC(=O)N1[C@H]2CC3CC[C@@]2(CS1(=O)=O)C3(C)C
measurement: > 100 µM
//
compound: Cc1cccc2c1NC(=S)[C@@H]1CCCN1C2=O
measurement: > 100 µM

----------
system: OVCAR-3 ovarian; experiment: NCI tumour cell line growth inhibition, 48 h
Binary call on TGI: YES from 30 µM upward, NO beneath that.

compound: S=c1[nH]c2ccc(Br)cc2c(=S)n1-c1ccccc1
label: YES
--
compound: CCCCCCCCCCCCCCCCCCCCCC(=O)Nc1ccn(C2OC(CO)C(O)C2O)c(=O)n1 (stereo not given)
label: YES
--
compound: O=c1oc2ccccc2n1CCN1CCCCC1
label: YES
--
compound: CC12Cc3cc4c(cc3C1(c1ccc([N+](=O)[O-])cc1)OCCO2)OCO4 (stereo not given)
label: YES
--
compound: Nc1nc(Cl)cc(Nc2cc(Cl)cc(Cl)c2)n1
label: YES
--
compound: Clc1nc(Cl)c2ncn(Cc3ccc(COc4cccc(OCc5ccc(Cn6cnc7c(Cl)nc(Cl)nc76)cc5)c4)cc3)c2n1
label: YES
--
compound: C=C1C(=O)O[C@H]2[C@H]1CC/C(COC(=O)N1CCC[C@H]1C(=O)Nc1ccc(OC)c(C(N)=O)c1O)=C\CC[C@@]1(C)O[C@@H]21
label: NO
--
compound: CC1OC2CC(=O)OC2C2=C1C(=O)c1c(O)c3c(c(O)c1C2=O)C1CC(O)C3(O)C(C)O1 (stereo not given)
label: NO
--
compound: COCc1cc2c(cc1/C=C/[N+](=O)[O-])OCO2
label: YES
--
compound: CCOP(=O)(OCC)C(NC(c1ccccc1)c1ccccc1)c1cccc2ccccc12 (stereo not given)
label: NO

----------
test system: OVCAR-5 ovarian; experiment: NCI tumour cell line growth inhibition, 48 h; in the data active means GI50 below about 0.43 µM; inactive means the rest
Outcomes: 1 (yes) for active, 0 (no) for inactive

molecule: O=C1C(Cl)=C(Nc2cccc(O)c2)C(=O)N1c1cc(Cl)c(Cl)cc1Cl
measurement.target: OVCAR-5 ovarian
label: 0 (no)
//
molecule: COc1cc[nH]c1/C=C1\C(=O)Nc2ccc(F)c(I)c21
measurement.target: OVCAR-5 ovarian
label: 0 (no)
//
molecule: COc1ccc2c(c1)OC(N(C(C)=O)C(C)=O)=C(C#N)C2c1ccc(F)cc1 (stereo not given)
measurement.target: OVCAR-5 ovarian
label: 0 (no)
//
molecule: CC1OC2CC(=O)OC2C2=C1C(=O)c1c(O)c3c(c(O)c1C2=O)C1CC(O)C3(O)C(C)O1 (stereo not given)
measurement.target: OVCAR-5 ovarian
label: 1 (yes)
//
molecule: CCCCN(Cc1ccc(F)cc1)c1ccc(CO)c(Cl)c1
measurement.target: OVCAR-5 ovarian
label: 0 (no)
//
molecule: CN(C)c1ccc2cc(-c3ccccc3F)c(N)nc2c1
measurement.target: OVCAR-5 ovarian
label: 0 (no)
//
molecule: CC(=O)[O-].CC(=O)[O-].[NH2-].[Pt+2].c1ccc2cnccc2c1
measurement.target: OVCAR-5 ovarian
label: 0 (no)
//
molecule: O=C(CCl)N1c2ccccc2Sc2c1ccc1ccccc21
measurement.target: OVCAR-5 ovarian
label: 0 (no)
//
molecule: CN(C)C(=S)N=Nc1c(O)[nH]c2ccccc12
measurement.target: OVCAR-5 ovarian
label: 0 (no)
//
molecule: C#CC[C@@H]1C[C@]2(C)[C@H]3CC=C4[C@H]5CC(C)(C)CC[C@]5(C(=O)NCCCCN)CC[C@@]4(C)[C@]3(C)CC[C@H]2C(C)(C)[C@H]1OC(C)=O
measurement.target: OVCAR-5 ovarian
label: 0 (no)

----------
tested on: PC-3 prostate; assay: NCI tumour cell line growth inhibition, 48 h

compound: C#CC[C@@H]1C[C@]2(C)[C@H]3CC=C4[C@H]5CC(C)(C)CC[C@]5(C(=O)NCCCCN)CC[C@@]4(C)[C@]3(C)CC[C@H]2C(C)(C)[C@H]1OC(C)=O
measurement.target: PC-3 prostate
bound.operator: =
TGI / µM: 2.93
--
compound: CC(C)C1OC(=O)/C=C/C=C/C=C/C=C/C=C/CC(O)CC(O)CC(O)CC(O)CC(O)CC(O)CC(O)CC(O)/C=C/C1C (stereo not given)
measurement.target: PC-3 prostate
bound.operator: >
TGI / µM: 100
--
compound: c1cnc2[nH]cc(-c3csc(-c4cn(CCCCN5CCOCC5)c5ccccc45)n3)c2c1
measurement.target: PC-3 prostate
bound.operator: =
TGI / µM: 4.01
--
compound: O=NNc1nc(-c2cccnc2)nc2ccccc12
measurement.target: PC-3 prostate
bound.operator: >
TGI / µM: 100
--
compound: O=[N+]([O-])c1cn[n+]([O-])c2ccccc12
measurement.target: PC-3 prostate
bound.operator: =
TGI / µM: 23.3
